assay: Chemical stability (relative purity loss) of peptide compounds in buffer formulations (Table 6); format: physicochemical; conditions: 50 mM phosphate buffer pH 7.4 + acetonitrile (3:1), 2° C. and 37° C., read-out: Chemical stability (relative purity loss), Buffer pH 7.4
Numbered stars: 1 amine (or outer) side, 2 acyl side, 3 side chain; on linkers, the order of the positions; unused ones are H or OH. Bridge positions count the residues as written; N and C are the ends. Square brackets hold non-standard residues; d marks the D form. Peptide text beside a SMILES is read from it. * marks the point of attachment. Lys(Me,(CH2)4NMe(CH2)5CO) = CN(CCCCCC(=O)[*:3])CCCCN(C)CCCC[C@H](N[*:1])C(=O)[*:2]; Lys(Me,(CH2)4NMe(CH2)4CO) = CN(CCCCC(=O)[*:3])CCCCN(C)CCCC[C@H](N[*:1])C(=O)[*:2]; X2 = O=C(Cc1ccc(-c2ccc(CC(=O)[*:2])cc2)cc1)[*:1]; Trp(7-Me) = Cc1cccc2c(C[C@H](N)C(=O)O)c[nH]c12; 2Nal = N[C@@H](Cc1ccc2ccccc2c1)C(=O)O; 3Pal = N[C@@H](Cc1cccnc1)C(=O)O; 12Ado = NCCCCCCCCCCCC(=O)O; AEEEA = NCCOCCOCCOCC(=O)O; Thp = NC1(C(=O)O)CCOCC1; Me2NCH2CH2 = CN(C)CC*; Aib = CC(C)(N)C(=O)O; Sar = CNCC(=O)O
The following molecules are shown together with reported degraded at 24 h values.
Numbers only; they are read as %.

[
  {
    "molecule": "Cc1cccc2c(C[C@@H]3NC(=O)CCCCCN(C)CCCCN(C)CCCC[C@@H](C(=O)N[C@@H](CC(N)=O)C(=O)N[C@@H](Cc4cccnc4)C(=O)N(C)CC(N)=O)NC(=O)C(C)(C)NC(=O)[C@H](Cc4ccc5ccccc5c4)NC(=O)[C@H](Cc4ccc(OCCN(C)C)cc4)NC(=O)C4(CCOCC4)NC(=O)[C@H](CCC(N)=O)NC3=O)c[nH]c12 [compound 31] ([Trp(7-Me)]Q[Thp]Y(Me2NCH2CH2)[2Nal][Aib][Lys(Me,(CH2)4NMe(CH2)5CO)]N[3Pal][Sar]-NH2; lactam N-7)",
    "readout": "degraded at 24 h",
    "unitAbbreviation": "%",
    "recordedResult": 0
  },
  {
    "molecule": "CC(=O)NCCCC[C@@H]1NC(=O)[C@H](Cc2c[nH]c3c(C)cccc23)NC(=O)CCCCN(C)CCCCN(C)CCCC[C@@H](C(=O)NCC(=O)N[C@@H](Cc2cccnc2)C(=O)N(C)CC(N)=O)NC(=O)C(C)(C)NC(=O)[C@H](Cc2ccc3ccccc3c2)NC(=O)[C@H](Cc2ccc(OCCN(C)C)cc2)NC(=O)C2(CCOCC2)NC1=O [compound 29] ([Trp(7-Me)]K(Ac)[Thp]Y(Me2NCH2CH2)[2Nal][Aib][Lys(Me,(CH2)4NMe(CH2)4CO)]G[3Pal][Sar]-NH2; lactam N-7)",
    "readout": "degraded at 24 h",
    "unitAbbreviation": "%",
    "recordedResult": 0
  },
  {
    "molecule": "Cc1cccc2c(C[C@@H]3NC(=O)Cc4ccc(cc4)-c4ccc(cc4)CC(=O)NCCCC[C@@H](C(=O)N[C@@H](CC(N)=O)C(=O)N[C@@H](Cc4cccnc4)C(=O)N(C)CC(N)=O)NC(=O)C(C)(C)NC(=O)[C@H](Cc4ccc5ccccc5c4)NC(=O)[C@H](Cc4ccc(OCCN(C)C)cc4)NC(=O)C4(CCOCC4)NC(=O)[C@H](CCC(N)=O)NC3=O)c[nH]c12 [compound 15] ([Trp(7-Me)]Q[Thp]Y(Me2NCH2CH2)[2Nal][Aib]KN[3Pal][Sar]-NH2; linker N-7 via X2)",
    "readout": "degraded at 24 h",
    "unitAbbreviation": "%",
    "recordedResult": 0.4
  }
]

**Q:** For Cc1cccc2c(C[C@@H]3NC(=O)COCCOCCOCCNC(=O)CC[C@@H](C(=O)N[C@@H](CC(N)=O)C(=O)N[C@@H](Cc4cccnc4)C(=O)N(C)CC(N)=O)NC(=O)C(C)(C)NC(=O)[C@H](Cc4ccc5ccccc5c4)NC(=O)[C@H](Cc4ccc(OCCN(C)C)cc4)NC(=O)C4(CCOCC4)NC(=O)[C@H](CCC(N)=O)NC3=O)c[nH]c12 [compound 14] ([AEEEA][Trp(7-Me)]Q[Thp]Y(Me2NCH2CH2)[2Nal][Aib]EN[3Pal][Sar]-NH2; lactam N-8) , what is its reported degraded at 24 h?
**A:** 0

**Q:** Cool, now Cc1cccc2c(C[C@@H]3NC(=O)CCCCCCCCCCCNC(=O)CC[C@@H](C(=O)N[C@@H](CC(N)=O)C(=O)N[C@@H](Cc4cccnc4)C(=O)N(C)CC(N)=O)NC(=O)C(C)(C)NC(=O)[C@H](Cc4ccc5ccccc5c4)NC(=O)[C@H](Cc4ccc(OCCN(C)C)cc4)NC(=O)C4(CCOCC4)NC(=O)[C@H](CCC(N)=O)NC3=O)c[nH]c12 [compound 2] ([12Ado][Trp(7-Me)]Q[Thp]Y(Me2NCH2CH2)[2Nal][Aib]EN[3Pal][Sar]-NH2; lactam N-8)
**A:** 0.1
